Reference source for all entries: ChEMBL document CHEMBL5365521

Test: Plasma protein binding in human assessed as free fraction
Type: ADME, cell-free
Measure: fraction unbound
Answers are plain numbers.

Example compounds with recorded fraction unbound:
Compound Structure String	Measure	Value Measured
C[C@H](C(=O)Nc1cccc2c(-c3nc(Nc4cccc(S(C)(=O)=O)c4F)ncc3F)c[nH]c12)N1CCN(C)CC1	fraction unbound	0.06
CC[C@H](C(=O)Nc1cccc2c(-c3nc(Nc4cccc(S(C)(=O)=O)c4F)ncc3C)c[nH]c12)N1CCN(C)CC1	fraction unbound	0.05
COC[C@H](C(=O)Nc1cccc2c(-c3nc(Nc4cccc(S(C)(=O)=O)c4F)ncc3F)c[nH]c12)N1CCN(C)CC1	fraction unbound	0.08
COC[C@H](C(=O)Nc1cccc2c(-c3nc(Nc4cccc(S(C)(=O)=O)c4F)ncc3C)c[nH]c12)N1CCN(C)CC1	fraction unbound	0.09
Cc1cnc(Nc2cccc(S(C)(=O)=O)c2F)nc1-c1c[nH]c2c(NC(=O)[C@@H](C)N3CCN(C)CC3)cccc12	fraction unbound	0.06

Then this compound:
Query string: Specify fraction unbound for `CC[C@H](C(=O)Nc1cccc2c(-c3nc(Nc4cccc(S(C)(=O)=O)c4F)ncc3F)c[nH]c12)N1CCN(C)CC1` and stop.
Result string: 0.05
